- Tested on: 786-0 renal
- assayOverview: NCI-60 one-dose screen, 48 h
- setupConditions: 10 µM unless noted
Compounds without any hit were thinned out: in the full panel of roughly 83,000, 20% have a hit. The source made the active and inactive calls. Rule for the calls: active = growth percent below 10; inactive = the rest.
I would appreciate it if you answered using one of these outcomes: Yes = active, No = inactive

Here are 8 compounds together with their reported answers.
O=C1/C(=C/c2ccc(F)cc2)Cc2ccccc21 :: No
COc1ccc(NS(=O)(=O)N2CCCCC2)cc1 :: No
O=C(Oc1ccccc1)C(Br)C(Br)c1ccccc1 (centres undefined) :: No
Cc1n(Cc2ccc3ccccc3c2)c2ccccc2[n+]1Cc1ccc2ccccc2c1 :: Yes
Cc1ccc(OCC(=O)Nc2ccc(Oc3ccccc3)cc2)c([N+](=O)[O-])n1 :: No
Nc1ccccc1C#Cc1ccccc1C#Cc1ccc(OCCCCCCOc2ccc(C#Cc3ccccc3C#Cc3ccccc3N)cc2)cc1 :: No
COc1cc(/C=C/C(=O)c2c(C)n([O-])c3ccccc3[n+]2=O)cc(OC)c1OC :: No
COc1cc(/C=C2\CN(C)CC3=C2Nc2nc(SC)[nH]c(=O)c2C3c2cc(OC)c(OC)c(OC)c2)cc(OC)c1OC (centres undefined) :: No

What classification did O=C1/C(=C/c2ccccc2Cl)CCc2ccccc21 end up with in this test?
No

What classification did CN(C)CCCN=c1cc2c(=O)n(CCCN(C)C)c(=O)c3c(NCCCN(C)C)cc4c(O)n(CCCN(C)C)c(=O)c1c4c3-2 end up with in this test?
Yes

What classification did COC(=O)C1CCN(S(=O)(=O)c2ccc(-c3ccccc3)cc2)CC1 end up with in this test?
No

What classification did COc1ccc([N+](=O)[O-])c(S(=O)(=O)c2ccc(Cl)cc2)n1 end up with in this test?
No

What classification did CCCCCCCCCCCCCCCCNC(=O)Nc1ccc2ccccc2c1 end up with in this test?
No

What classification did COc1ccc(/C=C2\CCc3ccccc3C2=O)cc1 end up with in this test?
No

What classification did NS(=O)(=O)c1ccc(-n2ncc3c(N/N=C/c4ccccc4)ncnc32)cc1 end up with in this test?
No

What classification did CN1C(=O)C(C2=NN(C=O)C(c3ccc(F)cc3)C2)C(=O)N(C)C1=O (centres undefined) end up with in this test?
No

What classification did O=C(Oc1cccc2ccccc12)c1ccccc1C(=O)c1ccccc1 end up with in this test?
No

What classification did C=CCNC(=O)/C(=C/c1cccc([N+](=O)[O-])c1)NC(=O)c1ccccc1 end up with in this test?
No

What classification did Cc1ccc(NC(=O)c2sc3nc4c(cc3c2N)C(=O)CCC4)cc1 end up with in this test?
No

----------
- System: NCI-H23 lung
- assayOverview: NCI-60 one-dose screen, 48 h (100 = growth as untreated, 0 = no growth, -100 = all killed)
- setupConditions: 10 µM unless noted
The panel holds about 83,000 compounds, 20% with a hit somewhere; the sample as a whole holds those more often. Active and inactive are the calls of the source. How the source made its calls: active means growth percent below 10; inactive means the rest.
quantityKind: growth

Look over these answered cases.
O=c1[nH]c(N2CCC(Cc3ccccc3)CC2)nc2sc3c(c12)CCCC3 :: 95.9% (inactive)
NS(=O)(=O)c1ccc(-n2nc(-c3ccc(Br)cc3)ccc2=O)cc1 :: 61.3% [100 µM] (inactive)
Cc1cc(C(=O)Nc2ccc3cc(CN4CCOCC4)ccc3n2)c(C)n1-c1ccccc1 :: 12.7% (inactive)
Cc1cnc2nc(-c3ccc(N(C)C)cc3)cn2c1 :: 93.2% (inactive)
c1cc[n+](Cc2ccnc3ccccc23)cc1 :: 123% (inactive)

Looking for the measured growth of N/C(=N\C(N)=N\c1nc2ccccc2s1)c1ccnc(Cl)c1 , can you help?
43.4% (inactive)

Looking for the measured growth of N#Cc1ccc(-c2csc(Nc3ccc4nc5n(c(=O)c4c3)CCC5)n2)cc1 , can you help?
105% (inactive)

Looking for the measured growth of CC(=O)N1N=C(c2ccc3c(c2)OCO3)CC1c1c(C)nn(-c2ccccc2)c1N(C)Cc1ccccc1 (centres undefined) , can you help?
86.9% (inactive)

Looking for the measured growth of CCCCCc1c(C)[nH]c(/C=C2\N=C(c3ccc[nH]3)C=C2Oc2ccccc2)c1C , can you help?
-80.2% [100 µM] (active)

----------
- Tested on: A549/ATCC NSCLC
- assayOverview: NCI-60 one-dose screen, 48 h
- setupConditions: 10 µM unless noted
Compounds without any hit were thinned out: in the full panel of roughly 83,000, 20% have a hit. Activity calls are given as the source filed them. How the source made its calls: active means growth percent below 10; inactive means the rest.
I would appreciate it if you answered using one of these outcomes: true for active, false for inactive

CC(C)CNc1nc(N=[N+]=[N-])nc(NCC(C)C)n1 :: false
O=C(Nc1ccc(Cl)cc1)Nc1nc2ccc(OC(F)(F)F)cc2o1 :: false
CN(C)c1ccc(-c2nc3ncc(Br)cc3o2)cc1 :: false

Let's switch to this compound now.
What classification did O=C(Nc1nn2c(-c3cc(C(F)(F)F)cc(C(F)(F)F)c3)nnc2s1)C1CCCC1 end up with in this test?
true

----------
- Test system: MCF7 breast
- assayOverview: NCI-60 one-dose screen, 48 h
- setupConditions: 10 µM unless noted
Compounds without any hit were thinned out: in the full panel of roughly 83,000, 20% have a hit. Active and inactive are the calls of the source. The calls were made as follows: active = growth percent below 10; inactive = the rest.
I would appreciate it if you answered using one of these outcomes: T = active, F = inactive

Here are 6 compounds together with their reported answers.
O=C1C(=O)c2c(nc3ccc(Cl)cn23)-c2ccccc21 :: T
O=C(Nc1ccc(Cl)cc1)Nc1ccccc1CNc1nc(Nc2ccc(OCCN3CCCC3)cc2)ncc1Cl :: T
O=C(COc1ccc(/C=C2\Cc3ccccc3C2=O)cc1)c1ccc(Cl)cc1 :: F
COc1ccc(C2=NN(C(C)=O)C(c3c(C)nn(-c4ccccc4)c3N3CCOCC3)C2)cc1 (centres undefined) :: F
C/C(=C\CCc1ccoc1)CC/C=C(\C)CCCC1COC(=O)C1 (centres undefined) :: F
CCCCCCCCCCNCCSS(=O)(=O)O :: F

What classification did COc1cc(/C=C\C(C)=N\Nc2ccccc2)ccc1O end up with in this test?
F

What classification did Cc1[nH]cnc1/C=C1\SC(N2CCCCC2)=NC1=O end up with in this test?
F

What classification did COc1ccc2cc(C3=CC(=O)CCC3)ccc2c1 end up with in this test?
F

----------
- Test system: TK-10 renal
- assayOverview: NCI-60 one-dose screen, 48 h (100 = growth as untreated, 0 = no growth, -100 = all killed)
- setupConditions: 10 µM unless noted
This is part of a sample that, as a whole, favours compounds with a hit. Of some 83,000 tested, about 20% had one in any assay. Activity calls are given as the source filed them. The calls were made as follows: active = growth percent below 10; inactive = the rest.
quantityKind: growth

NC(=O)NS(=O)(=O)c1ccc(N2N=C(C(F)(F)F)CC2c2cc(C(F)(F)F)cc(C(F)(F)F)c2)cc1 (configuration not stated) :: 85.6% (inactive)
Nc1nc(Nc2ccccc2SSc2ccccc2Nc2nc(N)nc(C(Cl)(Cl)Cl)n2)nc(C(Cl)(Cl)Cl)n1 :: 116% (inactive)
O=c1oc2c(cc1-c1ccc([N+](=O)[O-])cc1)C(O)Oc1ccccc1-2 (configuration not stated) :: 95.8% (inactive)
c1ccc(Nc2ccc(Nc3nc(-c4ccccc4)nc4ccccc34)cc2)cc1 :: 98.5% (inactive)
CN(C)CCCN=c1cc2c(=O)n(CCCN(C)C)c(=O)c3c(NCCCN(C)C)cc4c(O)n(CCCN(C)C)c(=O)c1c4c3-2 :: 7.45% (active)
Cc1cc(C)nc(NS(=O)(=O)c2ccc(Nc3nc4nc(SCc5ccccc5)nc(-c5ccc(O)cc5)c4c(=O)[nH]3)cc2)n1 :: 105% (inactive)
COc1cc(NC(=O)NCc2ccco2)ccc1-c1ccc(NC(=O)NCc2ccco2)cc1OC :: 37.7% (inactive)
COc1ccc(NC(=O)c2ccc(-c3ccccc3)cc2)c(C(N)=O)c1 :: 118% (inactive)

Looking for the measured growth of CC(C)N(Cc1ccccc1)c1c(S)ssc1=S , can you help?
37.1% (inactive)

Looking for the measured growth of COc1ccc(-n2cnc3cc(C(=O)N4CCCCC4)ccc32)cc1 , can you help?
110% (inactive)

Looking for the measured growth of COc1ccc(NC(=O)[C@@H]2C[C@H]2c2ccccc2)c(C(N)=O)c1 , can you help?
96% (inactive)

Looking for the measured growth of Cc1[nH]c(=O)[nH]c(=O)c1CCSSCCc1c(C)[nH]c(=O)[nH]c1=O , can you help?
101% (inactive)

Looking for the measured growth of O=C(NC1CCCCC1)c1ccc(Nc2ncnc3c2cnn3-c2ccccc2)cc1 , can you help?
51% (inactive)

----------
- Tested on: DU-145 prostate
- assayOverview: NCI-60 one-dose screen, 48 h (100 = growth as untreated, 0 = no growth, -100 = all killed)
- setupConditions: 10 µM unless noted
This is part of a sample that, as a whole, favours compounds with a hit. Of some 83,000 tested, about 20% had one in any assay. Calls of active or inactive are those of the source. Rule for the calls: active = growth percent below 10; inactive = the rest.
quantityKind: growth

Look over these answered cases.
O=C(Nc1ccccc1OC(=O)c1ccccc1)c1ccccc1 :: 112% (inactive)
Cc1nn(-c2nc3ccccc3s2)c(C)c1Oc1ccccc1O :: 68.2% (inactive)
COc1cc(/C=N/OC(=O)Nc2ccccc2)cc(OC)c1OC :: 115% (inactive)
FCc1ncc(-c2ccc(C(F)(F)F)cc2)c(NC2CCCCCC2)n1 :: -27.6% [100 µM] (active)
C/C(=C\CCc1ccoc1)CC/C=C(\C)CCCN1CCSCC1 :: 92.9% (inactive)
O=c1oc2c(cc1-c1ccc([N+](=O)[O-])cc1)C(O)Oc1ccccc1-2 (stereo not given) :: 142% (inactive)
Oc1c(Cl)cc(Oc2cc(Cl)c(O)c(CN3CCOCC3)c2)cc1CN1CCOCC1 :: 101% (inactive)
C=CCN(/C=C/CN(CC=C)CC=C)CC=C :: 110% (inactive)
COc1ccc2c(=O)c(OC)c(-c3cc(OC)c(OC)c(OC)c3)oc2c1 :: 109% (inactive)
Cc1sc2nc(NCCc3cccs3)[nH]c(=O)c2c1C :: 94.7% (inactive)

For the next question, use this compound.
Looking for the measured growth of Cc1cc(C(=O)Nc2ccc3cc(CN4CCOCC4)ccc3n2)c(C)n1-c1ccccc1 , can you help?
70.2% (inactive)
